Measured values drawn from patent US20160108049A1 for this set.

- target entity: human PDE5 (Homo sapiens, UniProt O76074)
- Construct: from tissue; host or cells: human platelets from fresh donor blood (platelet lysate)
- measurement protocol: Inhibition of PDE5 activity (platelet lysate, SPA assay)
- Type: biochemical
- condition summary: 0.5 μM cGMP, read-out: PDE5 Inhibitory values measured as -logIC50 (converted)
measurement label: IC50

Solved cases (4 shown):
COc1ccc(C2=NN(C3CCN(C(=O)[C@@H](CCC(=O)OCc4ccccc4)NC(=O)c4c[nH]c5c(-c6c(OCC7CC7)ccc7c6OCO7)ncnc45)CC3)C(=O)[C@@H]3CCCC[C@H]23)cc1OC [Example 100]	1 to 10 nM
COc1ccc(C2=NN(C3CCN(C(=O)[C@@H](Cc4ccccc4)NC(=O)c4c[nH]c5c(-c6c(OCC7CC7)ccc7c6OCO7)ncnc45)CC3)C(=O)[C@@H]3CCCC[C@H]23)cc1OC [Example 31]	< 1 nM
COc1ccc(C2=NN(C3CCN(C(=O)[C@@H](Cc4cccc(C)c4)NC(=O)c4c[nH]c5c(-c6c(OCC7CC7)ccc7c6OCO7)ncnc45)CC3)C(=O)[C@@H]3CCCC[C@H]23)cc1OC [Example 20]	< 1 nM
COc1ccc(C2=NN(C3CCN(C(=O)C(Cc4c[nH]c5ccccc45)NC(=O)c4c[nH]c5c(-c6c(OCC7CC7)ccc7c6OCO7)ncnc45)CC3)C(=O)C3CCCCC23)cc1OC (centres unmarked) [Example 92]	< 1 nM

Shift focus to the following entry.
Ask | Observed IC50 on human PDE5 (Homo sapiens, UniProt O76074) for COc1ccc(C2=NN(C3CCN(C(=O)[C@H](Cc4cccnc4)NC(=O)c4c[nH]c5c(-c6c(OCC7CC7)ccc7c6OCO7)ncnc45)CC3)C(=O)[C@@H]3CCCC[C@H]23)cc1OC [Example 43] , please.
Reply | < 1 nM
